Entries and their measured Emax follow.
Biological target: human OPRM1 (μ, MOR) (Homo sapiens)
Construct: host or cells: CHO-K1
Assay: cell-based
Conditions: OPRM1, read-out: cAMP Emax
Counter-ions that a name gives are not always drawn.
Please state the figure in %; there is no need to write the unit.

Sample records with Emax:
- CN(C)C1(CNC(=O)N2Cc3ccc(F)cc3C2)CCCC1: 87.9
- CN(C)C1(CNC(=O)N2Cc3ccccc3C2)CCCC1: 88.7

*Q* Answer with Emax of CN(C)C(CNC(=O)N1CCCc2cc(F)ccc21)c1ccsc1 (stereo not drawn) [Compound 7a, hydrochloride] measured for human OPRM1 (μ, MOR) (Homo sapiens).
*A* 92.1

---

In this section we review reported Emax values for a set of molecules.
Target: human OPRM1 (μ, MOR) (Homo sapiens)
Construct: host or cells: CHO-K1
Test: cell-based
Settings: OPRM1, read-out: cAMP Emax
Counter-ions that a name gives are not always drawn.
Give the number; % is assumed, so skip it.

*Q* Using known records, supply Emax for CN(C)C(CNC(=O)N1Cc2ccc(O)cc2C1)c1ccsc1 (stereo not shown) [Compound 22, hydrobromide]
*A* 16.3

*Q* Please supply the value of reported Emax for the item COc1ccc2c(c1)CN(C(=O)NCC(c1ccsc1)N(C)C)C2 (stereo not shown) [Compound 5a, hydrochloride]
*A* 5

*Q* Write down Emax measured for item CN(C)C(CNC(=O)N1Cc2ccc(F)cc2C1)c1ccccc1 (stereo not shown) [Compound 20a, hydrochloride]
*A* 70.8

---

Target: human OPRM1 (μ, MOR) (Homo sapiens, UniProt P35372)
Construct: host or cells: CHO-K1
Sequence (P35372 whole entry): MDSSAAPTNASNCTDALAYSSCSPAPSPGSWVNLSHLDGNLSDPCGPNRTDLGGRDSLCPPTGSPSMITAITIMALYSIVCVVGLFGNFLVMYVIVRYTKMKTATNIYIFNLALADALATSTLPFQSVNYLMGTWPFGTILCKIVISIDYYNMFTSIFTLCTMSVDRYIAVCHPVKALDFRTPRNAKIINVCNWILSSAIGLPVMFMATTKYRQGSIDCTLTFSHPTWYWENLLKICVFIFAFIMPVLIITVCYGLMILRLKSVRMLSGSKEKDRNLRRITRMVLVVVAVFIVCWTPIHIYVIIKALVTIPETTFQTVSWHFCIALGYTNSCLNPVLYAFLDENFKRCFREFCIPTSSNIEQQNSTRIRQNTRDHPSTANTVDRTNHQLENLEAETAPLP
Test: cell-based
Conditions: OPRM1, read-out: β-Arrestin Emax
Structures can show the parent of a compound that is named as a salt.
METRIC: Emax

# annotated cases, reported Emax shown
* CN(C)C(CNC(=O)N1CC[C@@H](c2ccccc2)C1)c1ccsc1 (stereo partly shown) | < 1%
* CN(C)C(CNC(=O)N1CCCc2ccc(O)cc21)c1ccsc1 (stereo not shown) | < 1%
* CN(C(=O)OC(C)(C)C)C(CNC(=O)N1Cc2ccc(F)cc2C1)c1ccsc1 (stereo not shown) | < 1%
* COc1ccc2c(c1)CN(C(=O)NCC(c1ccsc1)N(C)C)C2 (stereo not shown) [Compound 5a, hydrochloride] | < 1%

As a next step, examine the molecule that follows.
*Q* Give reported Emax value for CN(C)[C@@H](CCNC(=O)N1CC[C@@H](c2ccccc2)C1)c1ccsc1
*A* < 1%

---

Listed here: items and their measured Emax.
Target: human OPRM1 (μ, MOR) (Homo sapiens)
Construct: host or cells: CHO-K1
Assay: cell-based
Conditions: OPRM1, read-out: β-Arrestin Emax
Protocol: The Discoverx PathHunter® β-Arrestin assay is used to measure β-arrestin-2 activity. The technology is based on Enzyme Fragment Complementation (EFC) with β-galactosidase (β-Gal) as the reporter. […] EA is fused to Q-arrestin-2, and ED is fused to the C-terminus of the GPCR of interest. When a ligand binds and the GPCR is activated, Q-arrestin-2 is recruited to the receptor resulting in an ED/EA complementation, restoring f-Gal activity, which is measured using chemiluminescence. […]
Where a name gives a salt, the structure may show the parent alone.

Completed entries (count: 5):
- CN(C)C(CNC(=O)N1Cc2ccc(F)cc2C1)c1ccc(O)cc1 (centres unmarked) [Compound 21]: < 1%
- CN(C)C(CNC(=O)N1Cc2cc(F)c(F)cc2C1)c1ccsc1 (centres unmarked) [Compound 6a, hydrochloride]: < 1%
- CN(C)C(CNC(=O)N1CCCc2cc(F)ccc21)c1ccsc1 (centres unmarked) [Compound 7a, hydrochloride]: < 1%
- CN(C)[C@H](CCNC(=O)N1Cc2ccc(F)cc2C1)c1ccsc1 [Compound 30-R]: 9.2%
- CN(C)[C@@H](CCNC(=O)N1Cc2ccc(F)cc2C1)c1ccsc1 [Compound 30-S]: 9.9%

*Q* Name the recorded Emax of the item CN(C)C(CNC(=O)NC1CCCc2ccccc21)c1ccsc1 (centres unmarked) [Compound 11a, hydrochloride] in your answer.
*A* 112%

*Q* Could you please provide reported Emax for CN(C)C(CNC(=O)N[C@@H]1CCc2ccc(O)cc2C1)c1ccsc1 (some centres unmarked) [Compound 50] ? Thanks!
*A* < 1%

*Q* State its Emax for this compound: CN(C)C1(CNC(=O)N2Cc3ccc(F)cc3C2)CCCC1 [Compound 63]
*A* < 1%

// data source = patent US20220315567A1
